system: SNB-19; experiment: NCI tumour cell line growth inhibition, 48 h
Calls of active or inactive are those of the source. Cut-off read from the data, not from the text of the source: active = GI50 up to about 1.1 µM and inactive = higher.
measured_attribute: GI50

molecule	recorded_measurement
CCc1n[nH]c(=O)n1/N=C/c1ccc(/C=N/n2c(CC)n[nH]c2=O)cc1	> 100 µM (inactive)
CC(C)(C)C1CC[C@H]2c3c([nH]c4ccccc34)[C@H]3C(=O)N(c4ccc(F)cc4)C(=O)[C@H]3[C@H]2C1 (some centres undefined)	15.9 µM (inactive)
Cc1cc(C(C)(C)C)c(OCCCN2CCOCC2)c(C(C)(C)C)c1	17.3 µM (inactive)
Nc1ccc(Oc2ccc(C34CC5CC6C3CC3CC4C(C5)C6(c4ccc(Oc5ccc(N)cc5)cc4)C3)cc2)cc1	9.53 µM (inactive)

###

system: LOX IMVI; experiment: NCI tumour cell line growth inhibition, 48 h
Activity calls are given as the source filed them. No stated cut-off is given here; in the data, active = GI50 up to about 1.1 µM and inactive = higher.
measured_attribute: GI50

compound	test_system	measured_attribute	recorded_measurement
O=c1cc(NNc2ccc(F)cc2)[nH]c(=O)[nH]1	LOX IMVI	GI50	> 100 µM (inactive)
O=C(/C=C/c1ccccc1)N1CCCCC1	LOX IMVI	GI50	> 100 µM (inactive)
CCOC(=O)[C@@H]1CCN2CN(c3ccc(OC)cc3)N=C(c3ccccc3)[C@@]12c1ccccc1	LOX IMVI	GI50	14.1 µM (inactive)
CCN1CCC(O)(c2ccc(C)cc2)C(C(=O)c2ccc(C)cc2)C1 (configuration not stated)	LOX IMVI	GI50	26.2 µM (inactive)
O=C1C=Cc2c1csc2Br	LOX IMVI	GI50	25.5 µM (inactive)
O=C(O)CSc1nnc(-c2ccco2)[nH]1	LOX IMVI	GI50	> 100 µM (inactive)
CCOC(=O)c1ccc(NC(=O)Oc2ccc3c(C)cc(=O)oc3c2)cc1	LOX IMVI	GI50	34.5 µM (inactive)
N#CC(c1ccccc1)N(CCc1ccccc1)C(=O)c1ccc(C(=O)N(CCc2ccccc2)C(C#N)c2ccccc2)cc1 (configuration not stated)	LOX IMVI	GI50	17.9 µM (inactive)
Nc1nc(SCCc2ccccc2)c2nc[nH]c2n1	LOX IMVI	GI50	41.8 µM (inactive)
O=C(Nc1ccccn1)/C(=C\C(=O)c1ccc(Cl)cc1)Nc1ccccc1	LOX IMVI	GI50	> 10 µM (inactive)
Cc1cc2c3ccccc3n(C)c2c2c1C(=O)C=CC2=O	LOX IMVI	GI50	17.5 µM (inactive)
COC(=O)C1=CC(=O)OC1(OO)c1ccc(Br)cc1 (configuration not stated)	LOX IMVI	GI50	48.5 µM (inactive)

###

GI50 values by entry
system: KM-20L2; assay: NCI tumour cell line growth inhibition, 48 h
Activity calls are given as the source filed them. No stated cut-off is given here; in the data, active = GI50 up to about 1.1 µM and inactive = higher.

molecule	GI50
CCOC(=O)c1sc2c(sc(=O)n2-c2ccccc2)c1O	> 100 µM (inactive)
CN(C)CCNC(=O)c1cccc2ccc(-c3ccc(O)cc3)nc12	6.68 µM (inactive)
Cc1ccc(S(=O)(=O)N(CC(=O)O)c2ccccc2)cc1	> 100 µM (inactive)
NC1=C(NC(=O)Cc2ccccc2F)C(=O)c2ccccc2C1=O	40.7 µM (inactive)
Clc1ccc2c(c1)[nH]c1c2nc2ccccn21	14.7 µM (inactive)
CC(C)(CN1CCCCC1)C(=O)CC(SCCS(=O)(=O)O)c1ccc(Br)cc1 (stereo unspecified)	1.58 µM (inactive)
O=C(NCc1cccnc1)C1COc2cc(-c3cc(=O)c4ccccc4o3)ccc2O1 (stereo unspecified)	> 100 µM (inactive)
CC1(Cl)CC2OC3(Br)C=CC(C)(O)C2(CC1Br)C3(C)C (stereo unspecified)	> 100 µM (inactive)
S=C1OC2C3C4CC5C3C(O1)C1C5C4C21 (stereo unspecified)	> 100 µM (inactive)
CC1=C(C(=O)Nc2ccccc2C)C(c2ccc(N(C)C)cc2)C(C(=O)Nc2ccccc2C)=C(C)N1	> 100 µM (inactive)
N#CCCn1c(S)nnc1CCC(=O)Nc1ccc(Cl)cc1Cl	> 100 µM (inactive)

###

tested on: SK-MEL-5; assay: NCI tumour cell line growth inhibition, 48 h
Active and inactive are the calls of the source. Cut-off read from the data, not from the text of the source: active = GI50 up to about 1.1 µM and inactive = higher.
Possible outcomes: active, inactive

compound	cat
O=[N+]([O-])c1ccc(C2=NN(c3ccccc3)C[N+](c3ccc(Br)cc3)=N2)cc1	inactive
CCN(CC)CCN(/C(=N/c1ccccc1)N1CCOCC1)c1ccccc1	inactive
N#Cc1nc(NC(=O)c2ccccc2)sc1N	inactive
CC1(Cl)CC2OC3(Br)C=CC(C)(O)C2(CC1Br)C3(C)C (configuration not stated)	inactive
N#CCCn1c(S)nnc1CCC(=O)Nc1ccc(Cl)cc1Cl	inactive
COc1ccc2[nH]c3cc4c(=O)c5cc(OC)ccc5[nH]c4cc3c(=O)c2c1	inactive
CCOC(=O)/C(C#N)=C/c1ccc(SCc2ccco2)c([N+](=O)[O-])c1	inactive
CCn1c(CSc2nc(-c3ccccc3)c(-c3ccccc3)[nH]2)n[nH]c1=S	inactive
CCOC(=O)c1sc2c(sc(=O)n2-c2ccccc2)c1O	inactive
O=c1[nH]c2ccccc2c2nc3ccccc3n12	inactive
COc1cc(/C=C/C(=O)c2ccc(NS(=O)(=O)c3cc([N+](=O)[O-])ccc3C)cc2)cc(OC)c1OC	inactive
O=S(=O)(SCCCCSS(=O)(=O)c1ccc(Cl)cc1)c1ccc(Cl)cc1	inactive
O=C1OC(C2(O)OC(=O)c3ccccc32)c2ccccc21 (configuration not stated)	inactive
COC(=O)CCC(C)C1CCC2C3CCC4CC5CCC4(C)C3(O5)C(Br)C(Br)C12C (configuration not stated)	inactive
OC1(c2ccccc2)CC2CCC(C1)N2CCc1ccccc1 (configuration not stated)	inactive
CC(=O)OC1CC2(O)C(CCC3(C)C(c4ccc(=O)oc4)CCC32O)C2(C)C1=CC(O)C1OC12 (configuration not stated)	active
Cc1ccc(S(=O)(=O)c2c(N)n(CCN(C)C)c3nc4ccccc4nc23)cc1	inactive
O=C(O)/C=C\C(=O)c1ccc(Cl)cc1	inactive
O=C1Oc2ccccc2C(=O)/C1=C\Nc1nc(-c2ccc(O)c(O)c2)cs1	inactive
CC(=O)OCCc1cc2ccccc2oc1=O	inactive
Cc1cc(C)n2c(nc3ccccc32)c1C#N	inactive
COc1cc(C2SCC(=O)N2c2ccc(-c3ccc(-n4c(-c5ccccc5)nc5ccccc5c4=O)cc3)cc2)cc(OC)c1OC (configuration not stated)	inactive

###

tested on: HOP-92; experiment: NCI tumour cell line growth inhibition, 48 h
Calls of active or inactive are those of the source. No stated cut-off is given here; in the data, active = GI50 up to about 1.1 µM and inactive = higher.
GI50 values by entry

compound	GI50
S=c1cc(-c2ccc3c(c2)OCO3)s[nH]1	> 100 µM (inactive)
O=C(c1ccc(Cl)cc1)c1ccc(OCCCOc2ccc(C(=O)c3ccc(Cl)cc3)cc2)cc1	78.9 µM (inactive)
CC1(C)/C(=N\Nc2ccc([N+](=O)[O-])cc2[N+](=O)[O-])C2CCC1C2 (centres undefined)	93.8 µM (inactive)
c1cc(C2=NCCO2)c2ccsc2c1	41.2 µM (inactive)
O=C(O/N=C1/CCCC/C1=C\c1ccccc1)c1ccc(Cl)c(Cl)c1	26.8 µM (inactive)
COc1ccc(C2=C[C@]3(O)CCCN3C[C@@H]2c2ccc(OC)c(OC)c2)cc1	< 0.0001 µM (active)
COc1ccc(N[C@@H]2c3cc4c(cc3C(c3cc(OC)c(O)c(OC)c3)[C@H]3C(=O)OCC32)OCO4)cc1OC (some centres undefined)	> 100 µM (inactive)
CN1c2ccccc2C(=O)NC12CCN(CCCC(=O)c1ccc(F)cc1)CC2	62.1 µM (inactive)
Cc1c(C#N)c(N)n(C2OC(CO)C(O)C(O)C2O)c(=S)c1C#N (centres undefined)	> 100 µM (inactive)
[O-][S+]1CSCS1 (centres undefined)	> 100 µM (inactive)
CN1CCC2(CC1)SSC1(CCN(C)CC1)S2	> 100 µM (inactive)
CC(=O)Nc1cc([As](=O)(O)O)ccc1O [ACETARSONE]	> 100 µM (inactive)
O=C(O/N=C1/CCC/C1=C\c1ccccc1)c1ccc(Cl)c(Cl)c1	> 100 µM (inactive)
O=[N+]([O-])c1ccccc1S(=O)(=O)c1cccc2c1NCCC2	32.7 µM (inactive)
COC(=O)/C=C/c1cc(O)c2c(c1)[C@H](C(=O)OC)[C@@H](c1ccc(O)c(O)c1)O2	9.89 µM (inactive)
Cc1ccc(S(=O)(=O)N(CC(=O)O)c2ccccc2)cc1	> 100 µM (inactive)
COC(=O)C1=CC(=O)OC1(OO)c1ccc(Br)cc1 (centres undefined)	> 100 µM (inactive)
CCOc1c2c(cc3c1C(=O)c1c(OC)cccc1C3=O)C=C(OC)CC2	> 25 µM (inactive)
O=C(CCN1CCC(CCO)CC1)Nc1ccc2c(c1)C(=O)c1ccc(NC(=O)CCN3CCC(CCO)CC3)cc1C2=O	29.8 µM (inactive)
C[Si](C)(C)OC1c2[nH]c3ccccc3c2CN2C(=O)CCC12 (centres undefined)	> 100 µM (inactive)
Cc1cc(O)c(C=O)c2c1C(=O)Oc1c(CO)c(O)c3c(c1O2)C(O)OC3=O (centres undefined) [SLAZINIC ACID]	50.6 µM (inactive)
C/C(=C\COP(=O)(O)OP(=O)(O)O)CCCCCCOCc1ccccc1	> 100 µM (inactive)
CCOC(=O)[C@@H]1CCN2CN(c3ccc(OC)cc3)N=C(c3ccccc3)[C@@]12c1ccccc1	12.6 µM (inactive)
C=CCNC(=O)NCCCC(NC(C)=O)C(=O)NCc1ccccc1 (centres undefined)	> 100 µM (inactive)
CC(=O)OC1CC2(O)C(CCC3(C)C(c4ccc(=O)oc4)CCC32O)C2(C)C1=CC(O)C1OC12 (centres undefined)	0.0538 µM (active)
CC(C)(CN1CCCCC1)C(=O)CC(SCCS(=O)(=O)O)c1ccccc1 (centres undefined)	5.64 µM (inactive)
CCN(CC)CCn1c2ccccc2c(=O)c2c(O)ccc(O)c21	19.4 µM (inactive)
CCN1CCC(O)(c2ccc(C)cc2)C(C(=O)c2ccc(C)cc2)C1 (centres undefined)	19.7 µM (inactive)
C#CCn1c(=O)ccn(/C(=C\C(=O)OCC)C(=O)OCC)c1=O	2.16 µM (inactive)
O=NN(CCCl)C(=O)NC1CCCCC1 [LOMUSTINE]	31.3 µM (inactive)
Nc1ncnc2oc(C3OC(COC(=O)c4ccccc4)C(OC(=O)c4ccccc4)C3OC(=O)c3ccccc3)nc12 (centres undefined)	> 100 µM (inactive)
Cc1c(CCCl)c(Cl)n2c(nc3ccccc32)c1C#N	1.15 µM (inactive)
O=C(O)[C@@H](NS(=O)(=O)c1ccc2ccccc2c1)c1ccccc1	> 100 µM (inactive)
CCOC(=O)c1cc(-c2ccc(OC)c(OC)c2)c[nH]1	> 10 µM (inactive)
CN(C)c1ccc2c(c1)C(=O)N(OS(=O)(=O)c1ccc([N+](=O)[O-])cc1)C2=O	> 10 µM (inactive)
O=C1OC(C2(O)OC(=O)c3ccccc32)c2ccccc21 (centres undefined)	> 100 µM (inactive)
Nc1ccc2nc(-c3cccc(C(F)(F)F)c3)cc(O)c2c1	> 100 µM (inactive)
CCOP(=O)(OCC)C(C(=O)OC)C(=O)C(=O)Nc1cccc(O)c1 (centres undefined)	> 100 µM (inactive)
COC(=S)OC1CC(n2cnc3c(N)ncnc32)OC1CO[Si](C)(C)C(C)(C)C (centres undefined)	31 µM (inactive)

Origin of the recorded values: ChEMBL document CHEMBL1201862
